# assay-protocol: NCI Yeast Anticancer Drug Screen. Data for the CLN2oe strain (AID 163);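 note: 0% = growth of vehicle-only control cultures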
# test-conditions: S. cerevisiae CLN2oe strain, at 1.2 µM, stronger effect = higher value
This is part of a sample that, as a whole, favours compounds with a hit. Of some 79,000 tested, about 15% had one in any assay.
observation-type: growth inhibition (%)
Write the answer as a number in %, unit excluded.

In: Tell me its growth inhibition given Oc1ccc2c(c1)C(O)CCCC2 (stereo not given) as the entry.
Out: -4

In: Tell me its growth inhibition given CCOC(=O)C1N=[N+](c2ccccc2)C(=O)/C1=C\n1c(=S)[nH]c2ccc([N+](=O)[O-])cc21 (stereo not given) as the entry.
Out: 1

In: Tell me its growth inhibition given "Cc1nc2ccccc2nc1NNc1ccccc1" as the entry.
Out: -7

In: Tell me its growth inhibition given "CCN(CC)CCNc1ccc([N+](=O)[O-])c2nc3ccccc3c(N)c12" as the entry.
Out: 5

In: Tell me its growth inhibition given CCOC(=O)C1=C(C)NC(C)=C(C(=O)OCCNC(=O)c2ccc(N=[N+]=[N-])cc2)C1c1ccccc1C(F)(F)F (stereo not given) as the entry.
Out: -3

---

# assay-protocol: NCI Yeast Anticancer Drug Screen. Data for the rad18 strain (AID 177)
# test-conditions: S. cerevisiae rad18 mutant growth inhibition; at 11.0 µM; stronger effect = higher value
This is part of a sample that, as a whole, favours compounds with a hit. Of some 79,000 tested, about 15% had one in any assay.
observation-type: growth inhibition (%)
Write the answer as a number in %, unit excluded.

molecule | observation-type | result-units | measured-number
c1ccc2c(OCC3CO3)cccc2c1 (configuration not stated) | growth inhibition | % | 86

In: Tell me its growth inhibition given "S=c1[nH]c2cc3ccccc3cc2[nH]1" as the entry.
Out: 11

In: Tell me its growth inhibition given Cc1ccc(CC2(OCCN(C)C)CCC(C(C)(C)C)CC2)cc1 (configuration not stated) as the entry.
Out: -12

In: Tell me its growth inhibition given COc1ccc(C2C3=C(COC3=O)OC(C)(C)Oc3cc4c(cc32)OCO4)cc1OC (configuration not stated) as the entry.
Out: 7

In: Tell me its growth inhibition given "C=C(Cl)COC(=O)Nc1cccc(Cl)c1" as the entry.
Out: 8

In: Tell me its growth inhibition given "O=C1C=C(Cl)C(=O)C(c2ccc(Cl)cc2)=C1" as the entry.
Out: 53

In: Tell me its growth inhibition given "S=C1SCN(C2CCCCC2)CN1C1CCCCC1" as the entry.
Out: -39

In: Tell me its growth inhibition given "CNC(=O)OCc1c(COC(=O)NC)c(-c2ccc(Cl)cc2)n2c1CCC2" as the entry.
Out: -53

In: Tell me its growth inhibition given O=C1/C(=C/c2ccccc2)CCCC1CN1CCCCC1 (configuration not stated) as the entry.
Out: 74

In: Tell me its growth inhibition given CCCCCCCCCCCCCCCCOP(=O)(O)OCC(N)C(=O)O (configuration not stated) as the entry.
Out: 40

In: Tell me its growth inhibition given "CNC(=O)OCc1c(COC(=O)NC)c(-c2ccc(Cl)c(Cl)c2)n2c1SCC2" as the entry.
Out: 11

In: Tell me its growth inhibition given "CNC(=O)OCc1c(COC(=O)NC)c2n(c1C)-c1ccc(OC)cc1CCC2" as the entry.
Out: -48
